Target: AVP-V2 sites (Rattus norvegicus)
Construct: male rat liver (AVP-V1 sites) or kidney medulla (AVP-V2 sites); from tissue; host or cells: male rat kidney medulla, crude membranes
Sequence (Q00788 whole entry): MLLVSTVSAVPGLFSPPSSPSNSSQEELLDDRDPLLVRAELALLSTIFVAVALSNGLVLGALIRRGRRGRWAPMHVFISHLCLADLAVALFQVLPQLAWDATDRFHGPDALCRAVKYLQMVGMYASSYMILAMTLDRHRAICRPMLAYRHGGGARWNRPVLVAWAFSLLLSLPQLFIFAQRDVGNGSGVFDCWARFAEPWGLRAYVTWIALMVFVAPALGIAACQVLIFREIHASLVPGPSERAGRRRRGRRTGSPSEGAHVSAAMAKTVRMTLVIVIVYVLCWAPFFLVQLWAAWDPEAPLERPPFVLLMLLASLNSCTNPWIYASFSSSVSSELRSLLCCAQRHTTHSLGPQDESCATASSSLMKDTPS
Test: [^3 H]AVP binding to crude membrane preparation of male rat kidney medulla (AVP-V2 sites)
Conditions: 0.5 h, @ 10,000 (nM); read-out: [^3 H]-AVP-V2: percent inhibition of radioligand at the given concentration
Experimental: Nonspecific binding (5-10% of the total binding) was determined using 10 μM unlabeled AVP, and the binding reaction was terminated by filtration as described above for the [^3 H]OT binding assay.
Numbered stars: 1 amine (or outer) side, 2 acyl side, 3 side chain; on linkers, the order of the positions; unused ones are H or OH. Square brackets hold non-standard residues; d marks the D form. Peptide text beside a SMILES is read from it. X5 = CC(C)(C)OC(=O)CN1CCN([*:1])[C@H](C(=O)[*:2])C1; X4 = O=C([C@@H](Cc1cn(COCc2ccccc2)cn1)N[*:1])[*:2]; X10 = O=C(O)CN1CCN([*:1])[C@H](C(=O)[*:2])C1; Pip(4-aza) = O=C(O)[C@@H]1CNCCN1; dNMeF = CN[C@H](Cc1ccccc1)C(=O)O; dPip = O=C(O)[C@H]1CCCCN1
Reported inhibition at 10 µM values for the following compounds.
// units = %; emit number, no label

Field: example entries. Status: answers known.
{"Compound": "CC[C@H](C)[C@@H]1NC(=O)[C@@H](Cc2c[nH]c3ccccc23)NC(=O)[C@@H]2CCCN2C(=O)[C@@H](Cc2ccccc2)N(C)C(=O)[C@@H]2CN(CC(=O)O)CCN2C(=O)[C@H]2CCCCN2C1=O [Example 181] (cyclo(I[dPip][X10][dNMeF]P[dW]))", "inhibition at 10 µM [%]": 73}
{"Compound": "CC[C@H](C)[C@@H]1NC(=O)[C@@H](Cc2ccccc2)NC(=O)[C@@H]2CCCN2C(=O)[C@@H](Cc2cn(COCc3ccccc3)cn2)NC(=O)[C@@H]2CNCCN2C(=O)[C@H]2CCCCN2C1=O [Example 176] (cyclo([dF]I[dPip][Pip(4-aza)][X4]P))", "inhibition at 10 µM [%]": 81}
{"Compound": "CC[C@H](C)[C@@H]1NC(=O)[C@@H](Cc2c[nH]c3ccccc23)NC(=O)[C@@H]2CCCN2C(=O)[C@@H](Cc2ccccc2)N(C)C(=O)[C@@H]2CN(CC(=O)OC(C)(C)C)CCN2C(=O)[C@H]2CCCCN2C1=O [Example 180] (cyclo([dW]I[dPip][X5][dNMeF]P))", "inhibition at 10 µM [%]": 79}

# query: inhibition at 10 µM | item CC[C@H](C)[C@@H]1NC(=O)C(Cc2cn(C)c3ccccc23)NC(=O)[C@@H]2CCCN2C(=O)[C@@H](Cc2c[nH]cn2)NC(=O)[C@@H]2CCCCN2C(=O)[C@H]2CCCCN2C1=O (single isomer, unassigned) | system: AVP-V2 sites (Rattus norvegicus)
73
